# test-method-notes: in vitro
# assay-setup: rat, gh3-tre-luc cells, AC50 (uM) modified / 1000, Tox21_110001=Tox21_200205; viability, 1 nM T3 present, 24 h
measure-name: CC50 at 24 h

Give CC50 at 24 h for the following compound: "CC(Cl)Cl"
> 90 µM

* * *

# test-method-notes: in vitro
# Parameters: species or system GH3-TRE-Luc (rat pituitary); CellTiter-Fluor viability run in parallel with antagonist mode (1 nM T3), loss of viability
# assay-setup: rat, gh3-tre-luc cells, AC50 (uM) modified / 1000, Tox21_110001=Tox21_113033, viability, 1 nM T3 present
measure-name: CC50 at 24 h

Give CC50 at 24 h for the following compound: C[C@]12CC[C@@H]3c4ccc(OC(=O)N(CCCl)CCCl)cc4CC[C@H]3[C@@H]1CC[C@@H]2OP(=O)(O)O [Estramustine phosphate]
> 50 µM
